Measurement Description: Cytotoxicity against human M9-ENL1 cells assessed as reduction in cell viability after 24 hrs by Annexin V/7-AAD staining based flow cytometry
Type: functional
Test Settings: Homo sapiens, M9-ENL1, 24 h; read-out: LC50 (the source's name)
Lab note - cut at 4 µM for CC50: yes if strictly below, no if not.

# Molecule, Group
data = [
    ("C=C1C(=O)O[C@H]2[C@H]1CC/C(COC(=O)c1cn(C)c3ccccc13)=C/CC[C@@]1(C)O[C@@H]21", "no"),
    ("C=C1C(=O)O[C@H]2[C@H]1CC/C(COC(=O)c1cc(-c3ccc(Br)cc3)n[nH]1)=C/CC[C@@]1(C)O[C@@H]21", "yes"),
    ("C=C1C(=O)O[C@H]2[C@H]1C[C@H](OC(=O)c1cc(-c3ccc(Cl)cc3)on1)/C(C)=C/CC[C@@]1(C)O[C@@H]21", "yes"),
    ("C=C1C(=O)O[C@H]2[C@H]1C[C@H](OC(=O)c1ccc(C(F)(F)F)cc1)/C(C)=C/CC[C@@]1(C)O[C@@H]21", "no"),
    ("C=C1C(=O)O[C@H]2[C@H]1C[C@H](OC(C(=O)OCCN1CCOCC1)c1ccccc1)/C(C)=C/CC[C@@]1(C)O[C@@H]21 (stereo partly drawn)", "no"),
    ("C=C1C(=O)O[C@H]2[C@H]1CC/C(COC(=O)c1coc(-c3ccc(Br)cc3)c1)=C/CC[C@@]1(C)O[C@@H]21", "yes"),
    ("C=C1C(=O)O[C@H]2[C@H]1C[C@H](OC(=O)c1ccc(C(F)(F)F)cc1C(F)(F)F)/C(C)=C/CC[C@@]1(C)O[C@@H]21", "yes"),
    ("C=C1C(=O)O[C@H]2[C@H]1CC/C(COC(C(=O)OCCN1CCCC1)c1ccccc1)=C/CC[C@@]1(C)O[C@@H]21 (stereo partly drawn)", "no"),
    ("C=C1C(=O)O[C@H]2[C@H]1C[C@H](OC(C(=O)OCc1ccccc1)c1ccccc1)/C(C)=C/CC[C@@]1(C)O[C@@H]21 (stereo in doubt; 25a)", "yes"),
    ("C=C1C(=O)O[C@H]2[C@H]1C[C@H](OCC(=O)OCC)/C(C)=C/CC[C@@]1(C)O[C@@H]21", "no"),
    ("C=C1C(=O)O[C@@H]2[C@H]3O[C@]3(C)CC/C=C(\\C)CC[C@@H]12", "no"),
    ("C=C1C(=O)O[C@H]2[C@H]1C[C@H](OC(=O)c1cn(C)c3ccccc13)/C(C)=C/CC[C@@]1(C)O[C@@H]21", "yes"),
    ("C=C1C(=O)O[C@H]2[C@H]1C[C@H](OC(=O)c1ccc3ccccc3c1)/C(C)=C/CC[C@@]1(C)O[C@@H]21", "no"),
    ("C=C1C(=O)O[C@H]2[C@H]1CC/C(COC(=O)c1ccc3ccccc3c1)=C/CC[C@@]1(C)O[C@@H]21", "no"),
    ("C=C1C(=O)O[C@H]2[C@H]1CC/C(COC(=O)c1cccs1)=C/CC[C@@]1(C)O[C@@H]21", "no"),
    ("C=C1C(=O)O[C@H]2[C@H]1CC/C(COC(=O)c1coc(-c3ccccc3C(F)(F)F)c1)=C/CC[C@@]1(C)O[C@@H]21", "yes"),
    ("C=C1C(=O)O[C@H]2[C@H]1CC/C(COC(=O)c1cc(-c3ccc(Cl)cc3)on1)=C/CC[C@@]1(C)O[C@@H]21", "no"),
    ("C=C1C(=O)O[C@@H]2[C@@H]1CC/C(COC(C(=O)OCC)c1ccc(OC)cc1)=C/CC[C@]1(C)O[C@H]21 (stereo partly drawn)", "no"),
    ("C=C1C(=O)O[C@H]2[C@H]1CC/C(COC(C(=O)OCCN1CCOCC1)c1ccccc1)=C/CC[C@@]1(C)O[C@@H]21 (stereo partly drawn)", "no"),
    ("C=C1C(=O)O[C@H]2[C@H]1CC/C(COC(C(=O)OCC)c1ccccc1)=C/CC[C@@]1(C)O[C@@H]21 (stereo partly drawn)", "no"),
    ("C=C1C(=O)O[C@H]2[C@H]1CC/C(COCC(=O)OCC)=C/CC[C@@]1(C)O[C@@H]21", "no"),
    ("C=C1C(=O)O[C@H]2[C@H]1CC/C(COCc1ccccc1)=C/CC[C@@]1(C)O[C@@H]21", "no"),
    ("C=C1C(=O)O[C@H]2[C@H]1CC/C(COC(C(=O)OCC)c1ccccc1C(F)(F)F)=C/CC[C@@]1(C)O[C@@H]21 (stereo partly drawn)", "yes"),
    ("C=C1C(=O)O[C@H]2[C@H]1CC/C(COCc1ccc(C(F)(F)F)cc1)=C/CC[C@@]1(C)O[C@@H]21", "no"),
    ("C=C1C(=O)O[C@@H]2[C@@H]1CC/C(COC(C(=O)OCC)c1ccc(C(F)(F)F)cc1)=C/CC[C@]1(C)O[C@H]21 (stereo in doubt; 23a)", "yes"),
]
